Documented IC50 across a set of molecules
# Tested on: COLO-829
# method-summary: cells
# Type: functional, cell-based, Homo sapiens
# experimental-context: Homo sapiens, COLO-829
# Description: SANGER: Inhibition of human COLO-829 cell growth in a cell viability assay.
reported-metric: IC50 (µM)

molecule: COc1ccc(-c2ccc3c(N4CCOC[C@@H]4C)nc(N4CCOC[C@@H]4C)nc3n2)cc1CO [AZD-8055]
reported-relation: >
observed-measurement: 2
//
molecule: CCOc1nc(NC(=O)Cc2cc(OC)ccc2OC)cc(N)c1C#N
reported-relation: >
observed-measurement: 10
//
molecule: CCc1nc(N)nc(N)c1-c1ccc(Cl)cc1 [PYRIMETHAMINE]
reported-relation: =
observed-measurement: 7.28
//
molecule: CN(c1ncccc1CNc1nc(Nc2ccc3c(c2)CC(=O)N3)ncc1C(F)(F)F)S(C)(=O)=O [PF-00562271]
reported-relation: =
observed-measurement: 0.752
//
molecule: O=C(/C=C/c1ccccc1)NC(NC(=S)Nc1cccc2cccnc12)C(Cl)(Cl)Cl (stereo not given) [SALUBRINAL]
reported-relation: >
observed-measurement: 16
//
molecule: C=CCc1cccc(/C=N/NC(=O)CN2CCN(Cc3ccccc3)CC2)c1O [PAC-1]
reported-relation: >
observed-measurement: 2.56
//
molecule: COc1ccc(C2=N[C@@H](c3ccc(Cl)cc3)[C@@H](c3ccc(Cl)cc3)N2C(=O)N2CCNC(=O)C2)c(OC(C)C)c1 [NUTLIN-3]
reported-relation: =
observed-measurement: 7.24
//
molecule: O=C1N=C(NCc2cccs2)S/C1=C\c1ccc2ncccc2c1
reported-relation: >
observed-measurement: 5
//
molecule: CCC1=C[C@@H]2CN(C1)Cc1c([nH]c3ccccc13)[C@@](C(=O)OC)(c1cc3c(cc1OC)N(C)[C@H]1[C@@](O)(C(=O)OC)[C@H](OC(C)=O)[C@]4(CC)C=CCN5CC[C@]31[C@@H]54)C2 [VINORELBINE]
reported-relation: =
observed-measurement: 0.000105
//
molecule: Cn1cc(C2=C(c3ccc(Cl)cc3Cl)C(=O)NC2=O)c2ccccc21 [SB-216763]
reported-relation: >
observed-measurement: 10

----------
# System: CAMA-1
# method-summary: cells
# Assay type: functional, cell-based, Homo sapiens
# experimental-context: Homo sapiens, CAMA-1
# Description: SANGER: Inhibition of human CAMA-1 cell growth in a cell viability assay.
pIC50: −log10 of the molar value.
Readings of pIC50 for the listed compounds

smiles-string: O=C(NOCC1CC1)c1ccc(F)c(F)c1Nc1ccc(I)cc1Cl
measured-target: CAMA-1
pIC50: < 5.00
--
smiles-string: O=C(c1cc(Cc2n[nH]c(=O)c3ccccc23)ccc1F)N1CCN(C(=O)C2CC2)CC1
measured-target: CAMA-1
pIC50: < 5.30
--
smiles-string: O=C1N=C(NCc2cccs2)S/C1=C\c1ccc2ncccc2c1
measured-target: CAMA-1
pIC50: < 5.30
--
smiles-string: COc1ccc(C2=N[C@@H](c3ccc(Cl)cc3)[C@@H](c3ccc(Cl)cc3)N2C(=O)N2CCNC(=O)C2)c(OC(C)C)c1
measured-target: CAMA-1;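 also: growth inhibition of CAMA-1 cells, read out with a cell viability assay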
pIC50: < 5.10

----------
Recorded measurements of IC50, one per entry
# Tested on: MFM-223
# method-summary: cells
# Assay type: functional, cell-based, Homo sapiens
# experimental-context: Homo sapiens, MFM-223
# Description: SANGER: Inhibition of human MFM-223 cell growth in a cell viability assay.
reported-metric: IC50

smiles-string: Cn1cncc1[C@@](N)(c1ccc(Cl)cc1)c1ccc2c(c1)c(-c1cccc(Cl)c1)cc(=O)n2C
reported-metric: IC50
observed-measurement: > 16000 nM

smiles-string: C=CCNC1=C2C[C@@H](C)C[C@H](OC)[C@H](O)[C@@H](C)/C=C(\C)[C@H](OC(N)=O)[C@@H](OC)/C=C\C=C(/C)C(=O)NC(=CC1=O)C2=O
reported-metric: IC50
observed-measurement: 264 nM

smiles-string: CC(=O)O[C@@]12CO[C@@H]1C[C@H](O)[C@@]1(C)C(=O)[C@H](O)C3=C(C)[C@@H](OC(=O)[C@H](O)[C@@H](NC(=O)OC(C)(C)C)c4ccccc4)C[C@@](O)([C@@H](OC(=O)c4ccccc4)[C@H]21)C3(C)C
reported-metric: IC50
observed-measurement: 6.16 nM

smiles-string: O=C(NOCC1CC1)c1ccc(F)c(F)c1Nc1ccc(I)cc1Cl
reported-metric: IC50
observed-measurement: > 10000 nM

smiles-string: CCC1=C[C@@H]2CN(C1)Cc1c([nH]c3ccccc13)[C@@](C(=O)OC)(c1cc3c(cc1OC)N(C)[C@H]1[C@@](O)(C(=O)OC)[C@H](OC(C)=O)[C@]4(CC)C=CCN5CC[C@]31[C@@H]54)C2
reported-metric: IC50
observed-measurement: > 64 nM

smiles-string: Cn1cc(C2=C(c3ccc(Cl)cc3Cl)C(=O)NC2=O)c2ccccc21
reported-metric: IC50
observed-measurement: > 10000 nM
